So I've got a bunch of molecules here, and I need their pEC50 values.
SUBJECT_OF_TEST: PD-1/PD-L1 (Homo sapiens, UniProt Q9NZQ7)
Construct: 60535 (PD-1/NFAT-Reporter-Jurkat); host or cells: CHO cells expressing PD-L1; Jurkat cells expressing PD-1
Sequence (Q9NZQ7 19-290): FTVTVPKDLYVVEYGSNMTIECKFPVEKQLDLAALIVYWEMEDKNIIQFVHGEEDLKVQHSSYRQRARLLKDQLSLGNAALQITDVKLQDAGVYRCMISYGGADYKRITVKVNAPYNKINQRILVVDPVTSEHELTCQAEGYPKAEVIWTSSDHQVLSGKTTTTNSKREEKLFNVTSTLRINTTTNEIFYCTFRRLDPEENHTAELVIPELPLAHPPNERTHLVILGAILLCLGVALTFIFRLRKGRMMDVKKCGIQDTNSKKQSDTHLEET
METHOD_DESCRIPTION: Detection of biological activity of PD-1/PD-L1 signaling inhibition at the cellular level (NFAT luciferase reporter, PD-1/NFAT-Reporter-Jurkat cells co-cultured with TCR activator/PD-L1-CHO cells)
Type: cell-based
PROTOCOL_CONDITIONS: PD-1/NFAT-Reporter-Jurkat + TCR activator/PD-L1-CHO co-culture, 6 hours; Atezolizumab as positive control
Numbers only, as −log10 of the molar value.

{"MOLECULE": "COc1cc(Cn2ncc3c(-c4cccc(-c5ccc(CNC[C@@H]6CCC(=O)N6)c(C)c5)c4Cl)cccc32)c(Cl)cc1CN1CC[C@@H](C(=O)O)C1 [Compound 48]", "NUMBER": 6.18}

Return reported pEC50 values for all items listed beneath this line.
1. COc1cc(Cn2ncc3c(-c4cccc(-c5ccc(CNC[C@@H]6CCC(=O)N6)c(OC)n5)c4Cl)cccc32)c(Cl)cc1CN(C)C12CCC(C(=O)O)(CC1)CC2 [Compound 133]
2. COc1cc(Cn2ncc3c(-c4cccc(-c5cc(F)c(CNC[C@@H]6CCC(=O)N6)c(OC)c5)c4Cl)cccc32)c([N+](=O)[O-])cc1CN(C)[C@H]1CC[C@H](C(=O)O)CC1 [Compound 142]
3. COc1cc(-c2cccc(-c3cccc4c3cnn4Cc3cc(OCc4cncc(C#N)c4)c(CN[C@@H](CO)C(=O)O)cc3Cl)c2Cl)ccc1CNC[C@@H]1CCC(=O)N1 [Compound 8]

**A:**
[7.09, 7.43, 7.51]

Data origin: patent US12583839B2
